Sourced from patent US20060281695A1

Rhipicephalus sanguineus Mortality (%) 24 h listing for selected compounds.
Tested on: Brown Dog Tick (Rhipicephalus sanguineus)
Assay: Topical application on brown dog ticks, single dose screen (% mortality at 24 hours)
Format: in vivo
Details: adult brown dog ticks, topical 1 μL in acetone on abdomen, single dose 10 μg per tick
Answer in %, number only, no unit symbol.

Field: example entries. Status: answers known.
{"compound-structure-string": "O=S(=O)(Nc1cc(C(F)(F)F)ccc1Oc1cccc(C(F)(F)F)c1)C(F)(F)F", "measured-target": "Brown Dog Tick (Rhipicephalus sanguineus)", "value": 25}
{"compound-structure-string": "COCN(c1cccc(Oc2ccccc2)c1)S(=O)(=O)C(F)(F)F", "measured-target": "Brown Dog Tick (Rhipicephalus sanguineus)", "value": 8}

Reported Rhipicephalus sanguineus Mortality (%) 24 h, compound `CC(C)(C)C(=O)OCN(c1ccc(Cl)cc1Oc1ccc(Cl)cc1Cl)S(=O)(=O)C(F)(F)F` : ____ 0

Reported Rhipicephalus sanguineus Mortality (%) 24 h, compound `CC(C)=CCN(c1ccc(Cl)cc1Oc1ccc(Cl)cc1Cl)S(=O)(=O)C(F)(F)F` : ____ 3

Reported Rhipicephalus sanguineus Mortality (%) 24 h, compound `CC(C)=CCN(c1ccc(Cl)cc1Oc1ccccc1F)S(=O)(=O)C(F)(F)F` : ____ 0

Reported Rhipicephalus sanguineus Mortality (%) 24 h, compound `CCOCN(c1cccc(Oc2ccccc2)c1)S(=O)(=O)C(F)(F)F` : ____ 38

Reported Rhipicephalus sanguineus Mortality (%) 24 h, compound `C#CCN(c1ccc(Cl)cc1Oc1ccc(Cl)cc1Cl)S(=O)(=O)C(F)(F)F` : ____ 8

Reported Rhipicephalus sanguineus Mortality (%) 24 h, compound `CN(c1ccc(Cl)cc1Oc1ccc(Cl)cc1Cl)S(=O)(=O)C(F)(F)F` : ____ 5

Reported Rhipicephalus sanguineus Mortality (%) 24 h, compound `CCCC(=O)OCN(c1ccc(Cl)cc1Oc1ccc(Cl)cc1Cl)S(=O)(=O)C(F)(F)F` : ____ 8

Reported Rhipicephalus sanguineus Mortality (%) 24 h, compound `COCN(c1ccc(Cl)cc1Oc1ccc(Cl)cc1Cl)S(=O)(=O)C(F)(F)F` : ____ 0
